This collection of values is drawn from patent US8628771B2.

# systemUnderTest: bCA IV (Bos taurus)
# Construct: CA IV was isolated from bovine lung microsomes as described by Maren et al; from tissue; host or cells: bovine lung microsomes
# Sequence (Q95323 19-284): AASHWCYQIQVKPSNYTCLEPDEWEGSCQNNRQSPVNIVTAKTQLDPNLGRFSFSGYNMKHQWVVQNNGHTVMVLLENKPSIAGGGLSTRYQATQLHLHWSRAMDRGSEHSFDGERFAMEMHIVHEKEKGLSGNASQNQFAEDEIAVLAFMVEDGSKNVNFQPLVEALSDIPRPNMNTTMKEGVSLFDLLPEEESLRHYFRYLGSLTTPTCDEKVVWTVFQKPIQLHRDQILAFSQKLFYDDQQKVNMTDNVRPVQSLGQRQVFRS
# procedureText: CA esterase activity assay, isozyme bCA IV
# Type: biochemical, bovine
# conditionContext: Table 3; from bovine lung microsomes, esterase assay method; read-out: KI bCA IV
assayEndpoint: Ki (nM)
State just the number; it will be interpreted in nM.

Examples from the recorded data:
compound	Ki [nM]
NS(=O)(=O)c1nnc(NS(=O)(=O)c2ccc(-[n+]3c(-c4ccccc4)cc(-c4ccccc4)cc3-c3ccccc3)cc2)s1 [Compound 87]	5.6
CC(C)c1cc(-c2ccccc2)cc(-c2ccccc2)[n+]1-c1ccc(S(=O)(=O)Nc2nnc(S(N)(=O)=O)s2)cc1 [Compound 83]	4.5
Cc1cc(C)[n+](-c2ccc(S(=O)(=O)Nc3nnc(S(N)(=O)=O)s3)cc2)c(C)c1 [Compound 71]	2.1
Cc1cc(C)[n+](-c2ccc(S(=O)(=O)Nc3nnc(S(N)(=O)=O)s3)cc2)c(C)c1C [Compound 89]	2.4
NS(=O)(=O)c1nnc(NS(=O)(=O)c2ccc(-[n+]3c(-c4ccccc4)cccc3-c3ccccc3)cc2)s1 [Compound 88]	5.4
CCCc1cc(-c2ccccc2)cc(-c2ccccc2)[n+]1-c1ccc(S(=O)(=O)Nc2nnc(S(N)(=O)=O)s2)cc1 [Compound 82]	6

Briefly, Ki measured for CC(C)(C)c1cc(-c2ccccc2)cc(-c2ccccc2)[n+]1-c1ccc(S(=O)(=O)Nc2nnc(S(N)(=O)=O)s2)cc1 [Compound 85] : 7

Briefly, Ki measured for CCc1cc(-c2ccccc2)cc(-c2ccccc2)[n+]1-c1ccc(S(=O)(=O)Nc2nnc(S(N)(=O)=O)s2)cc1 [Compound 81] : 3.8

Briefly, Ki measured for CCCCc1cc(-c2ccccc2)cc(CCCC)[n+]1-c1ccc(S(=O)(=O)Nc2nnc(S(N)(=O)=O)s2)cc1 [Compound 78] : 10.3

Briefly, Ki measured for Cc1cc(C)[n+](-c2ccc(S(=O)(=O)Nc3nnc(S(N)(=O)=O)s3)cc2)c(C(C)C)c1 [Compound 72] : 3

Briefly, Ki measured for CCc1cc(-c2ccccc2)cc(CC)[n+]1-c1ccc(S(=O)(=O)Nc2nnc(S(N)(=O)=O)s2)cc1 [Compound 76] : 2.3

Briefly, Ki measured for Cc1cc(-c2ccccc2)cc(-c2ccccc2)[n+]1-c1ccc(S(=O)(=O)Nc2nnc(S(N)(=O)=O)s2)cc1 [Compound 80] : 3

Briefly, Ki measured for Cc1c(-c2ccccc2)cc(C)[n+](-c2ccc(S(=O)(=O)Nc3nnc(S(N)(=O)=O)s3)cc2)c1C [Compound 90] : 5.2

Briefly, Ki measured for Cc1cc(C(C)C)[n+](-c2ccc(S(=O)(=O)Nc3nnc(S(N)(=O)=O)s3)cc2)c(C(C)C)c1 [Compound 73] : 4.7

----------
Where a name gives a salt, the structure may show the parent alone.
assayEndpoint: melting point

compound	melting point
CCc1cc(-c2ccccc2)cc(CC)[n+]1-c1ccc(S(=O)(=O)Nc2nnc(S(N)(=O)=O)s2)cc1 (as salt: perchlorate)	267 to 268 °C

Briefly, melting point measured for CCc1cc(-c2ccccc2)cc(-c2ccccc2)[n+]1-c1ccc(S(=O)(=O)Nc2nnc(S(N)(=O)=O)s2)cc1 (as salt: perchlorate) : 254 to 255 °C

Briefly, melting point measured for Cc1cc(-c2ccccc2)cc(C)[n+]1-c1ccc(S(=O)(=O)Nc2nnc(S(N)(=O)=O)s2)cc1 (as salt: perchlorate) : > 300 °C

Briefly, melting point measured for NS(=O)(=O)c1nnc(NS(=O)(=O)c2ccc(-[n+]3c(-c4ccccc4)cccc3-c3ccccc3)cc2)s1 (as salt: perchlorate) : 218 to 220 °C

Briefly, melting point measured for Cc1cc(C)[n+](-c2ccc(S(=O)(=O)Nc3nnc(S(N)(=O)=O)s3)cc2)c(C)c1C (as salt: perchlorate) : > 300 °C

Briefly, melting point measured for CC(C)(C)c1cc(-c2ccccc2)cc(-c2ccccc2)[n+]1-c1ccc(S(=O)(=O)Nc2nnc(S(N)(=O)=O)s2)cc1 (as salt: perchlorate) : 203 to 205 °C

----------
# systemUnderTest: bCA IV (Bos taurus, UniProt Q95323)
# Construct: CA IV was isolated from bovine lung microsomes as described by Maren et al; from tissue; host or cells: bovine lung microsomes
# procedureText: CA esterase activity assay, isozyme bCA IV
# Type: biochemical, bovine
pKi: −log10 of the molar value.
assayEndpoint: pKi

Briefly, pKi measured for Nc1ccc(S(=O)(=O)Nc2nnc(S(N)(=O)=O)s2)cc1 [Compound 15] : ~8.30

----------
Overview of recorded [sulfonamide] in red blood cells, EI for various compounds
# System: human red cells
# conditionContext: human, 60 min, 2 mM, pH 7.4
State just the number; it will be interpreted in µM.

Examples from the recorded data:
structure	systemUnderTest	[sulfonamide] in red blood cells, EI, µM
Nc1ccc(S(=O)(=O)Nc2nnc(S(N)(=O)=O)s2)cc1	human red cells	158
CCc1cc(-c2ccccc2)cc(CC)[n+]1-c1ccc(S(=O)(=O)Nc2nnc(S(N)(=O)=O)s2)cc1	human red cells	1.1
Cc1cc(C)[n+](-c2ccc(S(=O)(=O)Nc3nnc(S(N)(=O)=O)s3)cc2)c(C)c1C	human red cells	0.4

Now turn to the next compound.
Briefly, [sulfonamide] in red blood cells, EI measured for Cc1cc(C)[n+](-c2ccc(S(=O)(=O)Nc3nnc(S(N)(=O)=O)s3)cc2)c(C)c1 : 0.3

----------
Overview of recorded log10 Ki for various compounds
# systemUnderTest: hCA I (Homo sapiens)
# Construct: made in house; host or cells: Escherichia coli BL21 (DE3)
# Sequence (P00915 whole entry): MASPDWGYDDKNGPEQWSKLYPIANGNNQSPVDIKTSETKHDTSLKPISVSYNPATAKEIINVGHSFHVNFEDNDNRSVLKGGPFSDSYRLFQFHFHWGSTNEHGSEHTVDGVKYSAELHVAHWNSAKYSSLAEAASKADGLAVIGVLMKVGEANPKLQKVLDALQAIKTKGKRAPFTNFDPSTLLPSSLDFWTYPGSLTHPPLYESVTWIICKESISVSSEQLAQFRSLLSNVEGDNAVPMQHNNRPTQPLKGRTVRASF
# procedureText: CA esterase activity assay, isozyme hCA I
# Type: biochemical
# conditionContext: Table 2; human (cloned) isozymes; read-out: KI hCA I
Kindly note that the scale is log10 and the underlying Ki is in µM.

compound	log10 Ki
CC(C)c1cc(-c2ccccc2)cc(-c2ccccc2)[n+]1-c1ccc(S(N)(=O)=O)cc1 [Compound 35]	2.10
Cc1cc(C)[n+](Cc2ccc(S(N)(=O)=O)cc2)c(C)c1C [Compound 54]	0.48
CC(C)c1cc(-c2ccccc2)cc(C(C)C)[n+]1-c1ccc(S(N)(=O)=O)cc1 [Compound 31]	0.70
NS(=O)(=O)c1ccc(-[n+]2c(-c3ccccc3)cc(-c3ccccc3)cc2-c2ccccc2)cc1 [Compound 37]	2.46
CC(C)c1cc(-c2ccccc2)cc(C(C)C)[n+]1Cc1ccc(S(N)(=O)=O)cc1 [Compound 45]	1.08
CC(C)c1cc(-c2ccccc2)cc(-c2ccccc2)[n+]1Cc1ccc(S(N)(=O)=O)cc1 [Compound 49]	2.05
CCCCc1cc(-c2ccccc2)cc(-c2ccccc2)[n+]1CCc1ccc(S(N)(=O)=O)cc1 [Compound 66]	2.46
CCCc1cc(-c2ccccc2)cc(CCC)[n+]1Cc1ccc(S(N)(=O)=O)cc1 [Compound 44]	1.38
CCc1cc(-c2ccccc2)cc(-c2ccccc2)[n+]1CCc1ccc(S(N)(=O)=O)cc1 [Compound 63]	1.60
Cc1cc(C)[n+](CCc2ccc(S(N)(=O)=O)cc2)c(C)c1C [Compound 70]	0.30

Now turn to the next compound.
Briefly, log10 Ki measured for Cc1cc(C)[n+](Cc2ccc(S(N)(=O)=O)cc2)c(C)c1 [Compound 39] : 0.85

----------
Overview of recorded pKi for various compounds
# systemUnderTest: hCA II (Homo sapiens, UniProt P00918)
# Construct: made in house; host or cells: Escherichia coli BL21 (DE3)
# procedureText: CA esterase activity assay, isozyme hCA II
# Type: biochemical
# conditionContext: Table 2; human (cloned) isozymes; read-out: KI hCA II
In simple prose, pKi is minus the logarithm base ten of a concentration in moles per litre.

structure	result
NS(=O)(=O)c1ccc(CC[n+]2c(-c3ccccc3)cc(-c3ccccc3)cc2-c2ccccc2)cc1	6.38
CCCc1cc(-c2ccccc2)cc(CCC)[n+]1Cc1ccc(S(N)(=O)=O)cc1	7.05
Cc1cc(C)[n+](Cc2ccc(S(N)(=O)=O)cc2)c(C)c1	7.30
NS(=O)(=O)c1ccc(C[n+]2c(-c3ccccc3)cc(-c3ccccc3)cc2-c2ccccc2)cc1	6.33
CCc1cc(-c2ccccc2)cc(CC)[n+]1Cc1ccc(S(N)(=O)=O)cc1	7.68

Briefly, pKi measured for CCc1cc(-c2ccccc2)cc(CC)[n+]1CCc1ccc(S(N)(=O)=O)cc1 : 8.05

Briefly, pKi measured for CCCc1cc(-c2ccccc2)cc(CCC)[n+]1CCc1ccc(S(N)(=O)=O)cc1 : 7.38

Briefly, pKi measured for CCCc1cc(-c2ccccc2)cc(-c2ccccc2)[n+]1CCc1ccc(S(N)(=O)=O)cc1 : 6.57
